Molecular target: T1, ZFP SBS#1475 (synthetic)
T1 chain: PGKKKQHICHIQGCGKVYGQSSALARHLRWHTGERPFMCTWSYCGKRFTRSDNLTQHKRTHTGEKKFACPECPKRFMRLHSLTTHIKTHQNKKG
Test: EMSA
Conditions: tags: MBP fusion
measuredAttribute: Kd
Numeric answer plus unit only.

Task: Given TTGAAGGTT (dsDNA) DNA 1: TTGAAGGTT DNA 2: AACCTTCAA , state its recorded Kd.
Result: 0.39 nM
